The reported measurements were obtained from paper PMC8185074.

Listing of entries alongside the reported HDAC2 activity raw data (signal).
# Target desc: HDAC2 (Homo sapiens)
# Construct: purchased Reaction Biology Corporation (assay run by the CRO)
# Sequence (Q92769 whole entry): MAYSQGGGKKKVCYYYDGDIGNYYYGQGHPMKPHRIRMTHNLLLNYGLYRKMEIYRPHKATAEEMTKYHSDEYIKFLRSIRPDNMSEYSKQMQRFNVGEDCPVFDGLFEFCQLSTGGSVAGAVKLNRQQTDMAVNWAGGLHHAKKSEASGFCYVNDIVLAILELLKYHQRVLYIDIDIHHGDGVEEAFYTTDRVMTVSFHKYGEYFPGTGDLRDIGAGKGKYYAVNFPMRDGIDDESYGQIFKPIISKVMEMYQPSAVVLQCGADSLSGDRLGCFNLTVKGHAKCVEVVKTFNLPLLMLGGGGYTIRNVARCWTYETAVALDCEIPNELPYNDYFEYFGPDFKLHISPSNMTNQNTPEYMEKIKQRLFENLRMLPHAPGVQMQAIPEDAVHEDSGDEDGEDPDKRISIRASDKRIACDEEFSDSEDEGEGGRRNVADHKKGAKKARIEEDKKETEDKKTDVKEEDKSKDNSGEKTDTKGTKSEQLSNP
# Assay procedure: HDAC2 inhibition, full IC50 measurement (Reaction Biology; fluorogenic p53 peptide RHKK(Ac)AMC)
# Format: biochemical
# Condition set: Conc. 1.00E-05 M, t1
Peptide text beside a SMILES is read from it.
Please reply with the value in numeric form only.

Recorded results for 4 compounds are shown here.
Which HDAC2 activity raw data (signal) is reported for this compound? NCCCC[C@@H]1NC(=O)[C@@H]2C[C@@H](O)CN2C(=O)[C@H](CC(N)=O)NC(=O)[C@H](CCCCCS)NC(=O)CNC(=O)[C@H](Cc2c[nH]c3ccccc23)NC(=O)[C@@H](CCCCN)NC(=O)[C@H](CCC(N)=O)NC1=O [des1.1.2, SHA-Asn-Hpr-Lys-Gln-dLys-Trp-Gly] (HELM PEPTIDE1{G.[O=C([C@H](CCCCCS)N[*:1])[*:2]].N.[Hyp].K.Q.[dK].W}$PEPTIDE1,PEPTIDE1,1:R1-8:R2$$$V2.0)
101836

Which HDAC2 activity raw data (signal) is reported for this compound? N=C(N)NCCC[C@H]1NC(=O)[C@@H]2CCCN2C(=O)[C@H](CO)NC(=O)[C@@H](Cc2c[nH]cn2)NC(=O)[C@H](CCCCCS)NC(=O)[C@H](CCCCN)NC(=O)[C@H](Cc2ccc(O)cc2)NC(=O)[C@H]2CCCN2C(=O)[C@@H](CCC(N)=O)NC1=O [des3.1.0, SHA-dHis-Ser-Pro-dArg-dGln-dPro-Tyr-Lys] (HELM PEPTIDE1{K.[O=C([C@H](CCCCCS)N[*:1])[*:2]].[dH].S.P.[dR].[dQ].[dP].Y}$PEPTIDE1,PEPTIDE1,1:R1-9:R2$$$V2.0)
59408

Which HDAC2 activity raw data (signal) is reported for this compound? C[C@H](O)[C@H]1NC(=O)[C@H](Cc2c[nH]c3ccccc23)NC(=O)[C@H](CCCCCS)NC(=O)[C@H](CCCCN)NC(=O)[C@@H](CC(=O)O)NC(=O)[C@@H](CCCCN)NC(=O)[C@@H](CO)NC(=O)[C@H](CC(N)=O)NC(=O)[C@H](CC(=O)O)NC1=O [des2.1.0, SHA-Trp-dThr-Asp-Asn-dSer-dLys-dAsp-Lys] (HELM PEPTIDE1{D.N.[dS].[dK].[dD].K.[O=C([C@H](CCCCCS)N[*:1])[*:2]].W.[dT]}$PEPTIDE1,PEPTIDE1,1:R1-9:R2$$$V2.0)
8775

Which HDAC2 activity raw data (signal) is reported for this compound? CSCC[C@H]1NC(=O)[C@@H](CO)NC(=O)[C@H](CC(N)=O)NC(=O)[C@H](CC(=O)O)NC(=O)[C@@H]([C@H](C)O)NC(=O)[C@H](Cc2c[nH]c3ccccc23)NC(=O)[C@H](CCCCCS)NC(=O)[C@H](CCCCN)NC(=O)[C@@H](CC(=O)O)NC1=O [des2.1.1, SHA-Trp-dThr-Asp-Asn-dSer-dMet-dAsp-Lys] (HELM PEPTIDE1{D.N.[dS].[dM].[dD].K.[O=C([C@H](CCCCCS)N[*:1])[*:2]].W.[dT]}$PEPTIDE1,PEPTIDE1,1:R1-9:R2$$$V2.0)
-452

# evaluate next
Which HDAC2 activity raw data (signal) is reported for this compound? NCCCC[C@@H]1NC(=O)[C@@H]2CCCN2C(=O)[C@H](CC(N)=O)NC(=O)[C@H](CCCCCS)NC(=O)CNC(=O)[C@H](Cc2c[nH]c3ccccc23)NC(=O)[C@@H](CCCCN)NC(=O)[C@H](CCC(N)=O)NC1=O [des1.1.0, SHA-Asn-Pro-Lys-Gln-dLys-Trp-Gly] (HELM PEPTIDE1{G.[O=C([C@H](CCCCCS)N[*:1])[*:2]].N.P.K.Q.[dK].W}$PEPTIDE1,PEPTIDE1,1:R1-8:R2$$$V2.0)
26927
